Molecular target: Vitamin D3 receptor (Homo sapiens, UniProt P11473)
Sequence (P11473 whole entry, the tested form may be a part): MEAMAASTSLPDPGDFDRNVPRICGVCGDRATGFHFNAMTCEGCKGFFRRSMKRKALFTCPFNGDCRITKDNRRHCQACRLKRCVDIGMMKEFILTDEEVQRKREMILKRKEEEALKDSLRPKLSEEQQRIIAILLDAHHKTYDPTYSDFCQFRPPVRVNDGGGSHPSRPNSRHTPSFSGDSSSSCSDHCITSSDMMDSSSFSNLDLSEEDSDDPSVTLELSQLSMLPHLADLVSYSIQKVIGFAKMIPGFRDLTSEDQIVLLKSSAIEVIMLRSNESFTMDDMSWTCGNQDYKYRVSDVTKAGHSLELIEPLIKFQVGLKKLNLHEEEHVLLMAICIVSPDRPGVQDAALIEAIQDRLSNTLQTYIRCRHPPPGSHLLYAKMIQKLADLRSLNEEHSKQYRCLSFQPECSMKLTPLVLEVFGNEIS
Test: Antagonist activity at VDR-LBD (unknown origin) assessed as inhibition of LG190178-induced recruitment of alexa fluor 647-labeled SRC2-3 after 30 mins by fluorescence polarization assay

- smiles_repr: "COc1ccccc1-c1nc(C)c(COc2ccc(CC(=O)O)cc2)o1"
  IC50: "Not Active"
- smiles_repr: "COc1ccccc1-c1nc(C)c(COc2ccccc2C(=O)O)o1"
  IC50: "Not Active"
- smiles_repr: "COC(=O)CCc1ccc(OCc2oc(-c3ccccc3OC)nc2C)cc1"
  IC50: "Not Active"
- smiles_repr: "COc1cccc(-c2nc(C)c(COc3cccc(C(=O)O)c3)o2)c1"
  IC50: "Not Active"
- smiles_repr: "COc1ccccc1-c1nc(C)c(COc2cccc(C(=O)O)c2)o1"
  IC50: "Not Active"
- smiles_repr: "COC(=O)Cc1ccc(OCc2oc(-c3ccccc3OC)nc2C)cc1"
  IC50: "Not Active"
- smiles_repr: "COc1ccccc1-c1nc(C)c(COc2ccc(CCC(=O)O)cc2)o1"
  IC50: "Not Active"
- smiles_repr: "COc1cccc(-c2nc(C)c(COc3ccc(CCC(=O)O)cc3)o2)c1"
  IC50: "Not Active"
- smiles_repr: "COC(=O)c1cccc(OCc2oc(-c3ccccc3OC)nc2C)c1"
  IC50: "Not Active"
